Test system: HT-29
Experiment Description: Compound was tested for in vitro growth inhibition of primary panel tumor cell line HT-29/219
Assay type: functional, cell-based, Homo sapiens
Endpoint Label: IC50 (µM)
Respond numerically; units are µM and should not be typed.

// field: IC50; key: CISPLATIN ; value = 17
